Every entry's value here was drawn from the supplement of paper PMC9170038.

Quick list: apparent KD of K4 kissing-loop reporter per entry.
- Tested on: K4 kissing-loop RNA reporter
- test.summary: apparent KD of K4 kissing-loop reporter; higher = weaker reporter binding
- condition.info: Eterna round: R107; input ligand: FMN 200 uM
Express your answer in nM, writing the number without its unit.

Solved entries:
{"columns": ["biopolymer.sequence", "units.text", "measured.number"],
 "data": [
  ["UGGAUAUAGUGAUGUUAUAUAGAGAUUGAUACCAGUUAAGAGAAUAGCCCUUGGCAGCAGAAAGAAGUAUCAUUAGAGAAGAAUG [ExTheophyl.Ac]", "nM", 256],
  ["CCGGGCGGCCGAAGGAGCGGGCGGACCCGAGUGAUGUUCGGGUGGACCGUGAGGUCCGGUGCCCAGGUAGGUCGCGGUUCCGCCC [#2 Same State - Arginine B Attempt #5 (HarryS)]", "nM", 117],
  ["GUCUGAUGCGUUGAUACCAGUCCUUCAGUGAUGUUGCAAGCGCGGCCUAUCAAGCAAUCCGACCCUUGGCAGCAAUAGGUCCGAA [theeternabot_exclusion_KL_Theo_B_9]", "nM", 892],
  ["AGCUCAGAGUGACUCGAUAAGAGUCACAAACGAGGACCGGUACGGCCGCCACUCGAAAUAAUGGGAGUGAUGUUCUCACUGAGCA [#SwitchBubble 3 #StaticStem #K4Late]", "nM", 1030],
  ["GUGCGGUGGAGGCUACCGCUACUCUGAGAAGGAGCGCAGAAGACUGCAGGUAGGUCGCUUAGAGCUUGCAGUGAUGUUGCAAGUU [KL-SSArg-A18]", "nM", 134],
  ["CCGAGCCUGACGUAAGUCAGGCUCUGCGAGCGAGGACCGGUACGGCCGCCACUCGGUGCAGUGAUGUUGCAUGGCCGCAAGGCCG [#2 Exclusion - Tryptophan A Attempt #23 (HarryS)]", "nM", 293],
  ["UGAUACCAGACUGAUACCAGCCAGUGAUGUUGGCUAAUCCGAGAAGGAGUCAAAGACUCCGGCCCUUGGCAGCAGUCUGGUAUCU [TheoBX 4 #SwitchBubble #StaticStem]", "nM", 133],
  ["GCGGGCGGCUGAAGGAGCGGGCGGGCCCGAGUGAUGUUCGGGUGGGCUGUGAGGCCCGGAGCCCAGGUAGGUCGCGGUUCCGCCC [#2 Same State - Arginine B Attempt #26 (HarryS)]", "nM", 157]
]}

// recorded apparent KD of K4 kissing-loop reporter for UGUAAUGAGUGAUGUUCAUGUAGUAAGGAUACCAGUAAUUCAAAAUGCCCUUGGCAGCUUAGUUCUAUCUAUAGUUGGGUAGUGG [Theophilline A V4 (+5U)] : 162

// recorded apparent KD of K4 kissing-loop reporter for AGGUCCGAGCCCGCAAGGGCUCGGACCUGUUAGGAUAUGACGUUAUUCAGAAGGGAUGGGUGGAGUGAUGUUCCACCCGCGAGGG [#2 Same State - FMN A Attempt #12 (HarryS)] : 132

// recorded apparent KD of K4 kissing-loop reporter for AGCAGUGAUGUUGCUCAAUUUACAGGUGAUACCAGAGGUCAGUCUCUCCCUUGGCAGCACUUCAUACGAUGAUGUUUUAUCGGCC [theeternabot_sameState_KL_Theo_A_50] : 374

###

Quick list: apparent KD of K4 kissing-loop reporter per entry.
- Tested on: K4 kissing-loop RNA reporter
- test.summary: apparent KD of K4 kissing-loop reporter; higher = weaker reporter binding
- condition.info: Eterna round: R107; input ligand: none
Express your answer in nM, writing the number without its unit.

Solved entries:
{"columns": ["biopolymer.sequence", "apparent KD of K4 kissing-loop reporter / nM"],
 "data": [
  ["AAUAUAGUGAUGUUAUAUAAGAAGGAGUUACGAGGACCGGUACGGCCGCCACUCGAAACGAGUGAGGAUUUGGGAGAUUGGGUUU [SSTryptA.M]", 474],
  ["UUCGAUCAGUGAUGUUGAUCAAUAGUCGAAGGAGCGCUAUAGAUAGCAGGUAGGUCGCGGCUACAGGGUGUUAAGACACCCAGAA [#13 K4 Arginine A Same State]", 453],
  ["AAUGUACAGGGAAGGAGCGUAGUCCAGUGAUGUUGGAAUUAAAUUCCUGUGAUGUUGGUUAUACAGGUAGGUCGCCCUAAAGUGC [KL-XARG-B21]", 108],
  ["UGAUACCAGACUGAUACCAGCCAGUGAUGUUGGCUAAUCCGAGAAGGAGUCAAAGACUCCGGCCCUUGGCAGCAGUCUGGUAUCU [TheoBX 4 #SwitchBubble #StaticStem]", 133],
  ["UCGACAGUGAACGAUACCAGCGUCACGUGGCUGGUGGUCACAUGAGUGAUGUUCAUGUAACGCCCUUGGCAGCGUGCACGUAUCA [KL-XTheo-B8]", 133]
]}

// recorded apparent KD of K4 kissing-loop reporter for UUCGAUCAGUGAUGUUGAUCAUCAGUCGAAGGAGCGCUAGAGAUAGCAGGUAGGUCGCGACUGCAAGGUGUGAGAACACCUCGAA [Arg A SS t9a] : 487

// recorded apparent KD of K4 kissing-loop reporter for UGAUGUUUAGUUCACCCAGUGAUGUUGGAAGGAGCGUGCGAAAGCACAGGUAGGUCGCCAACCUAAAAGUGUCUUGAUUAUCUAA [JR_Nu_ExcArginiA_Sub028] : 444

// recorded apparent KD of K4 kissing-loop reporter for UGGCGAGUGAUGUUCGUUGUUGUAGUGUGUCGAGGACCGGUACGGCCGCCACUCGGGUUGGUUGUUGUUGUUGUUGUUGUUGUUG [First Shot] : 196

// recorded apparent KD of K4 kissing-loop reporter for UUUAUUAAGACGGCCGCCACUGAUUCAUAGUGAUGUUAUGAUAUAAUUUUAGUGAUGUGCAUUAGCAGGACCGGGUCAAUUAUUA [#28 K4 Tryptophan B Exclusion] : 120

// recorded apparent KD of K4 kissing-loop reporter for AUUCGCAGUGAUGUUGCGAUUCCGUUGAGGGAGGAUAUUGGUAAUACAAGAAGGCCCGGCUGCGGGUGAUGUUCGCAUUAGGGCC [Exclusion FMN A GF18] : 146

// recorded apparent KD of K4 kissing-loop reporter for UGGAGUUGACGAAAAGUCAACUCCGGAGAAGGAGCGGACGAAAGUCCAGGUAGGUCGCUCCCUACCAGUGAUGUUGGUACUGAAA : 209

// recorded apparent KD of K4 kissing-loop reporter for GAUUUAGAGGCGGCCGCCACUAGUGAUGUUAGUGAUGUUUGAUACUGAAUAUAUCGGCGUGUAGAUAGGACCGGGCCAGAUGGAG [zwqqmullin] : 218

// recorded apparent KD of K4 kissing-loop reporter for GUUGCAGCCCGUGAUACCAGCAUCGGUCGCCGGGUCCAGUGAUGUUGGGCUUGCGUUCUAUGCCCUUGGCAGCGCGGCCUGACAG [Qulaanar] : 174

// recorded apparent KD of K4 kissing-loop reporter for GUGUGUGUCGGAGGAUAUGCGGUGGGUGUGGGCGGAUUAGUGAUGUUGGUUGUGGUGGUGGUGGGUGUAGAAGGUUGGUGUGUGU [RHig 3/7 C] : 738

// recorded apparent KD of K4 kissing-loop reporter for GGCAGUGAUGUUGCCAGUGGCAGAUUGGAAGGAGCGUGGUGAGACACAGGUAGGUCGCUAAUUGAAGUUGCUGUCACUAGAAUGC [whbob_Ex_Arginine_A_2t132] : 293

// recorded apparent KD of K4 kissing-loop reporter for UGACUGGACUGAAGGAGCGAGCGAGACAAAGUCUCGGAAAUUCAGUGAUGUUGAUAUAUAACUCAGGUAGGUCGCAGUCUAGUCU [ArgBS 6 #SwitchBubble #StaticStem] : 459

// recorded apparent KD of K4 kissing-loop reporter for CGCAGUGAUGUUGCGAGUAGCUACAGGGAAGGAGCGCGCUAGUGCGCAGGUAGGUCGCCCACGCAGUGAUGUUGCGUCAUAGGGU [Exclusion Arg A GF8] : 114

// recorded apparent KD of K4 kissing-loop reporter for AAAAUAAACCAGUGAUGUUGGUGUCUGGAUACCAGCGACGAAAGUCGCCCUUGGCAGCUACGGACGUACAAAAUAAGUACGUCCU [MatMod 8 - Jieux - Same State - Theophylline A] : 655

// recorded apparent KD of K4 kissing-loop reporter for UUUCAAAUUUAAGGAUAUUAGAUACCAGGAAAGGAGUGAUGUUCCGUGCUACGAUAGUGCUAGGGCUAAGAAGGUAAGUCUCGAG [theeternabot_sameState_KL_FMN_B_37] : 85.6

###

- System: K4 kissing-loop RNA reporter;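 also: bound reporter read as fluorescence of individual clusters on recovered sequencing chips by microscopy, with normalized cluster intensities fitted with a binding model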
- test.summary: apparent KD of K4 kissing-loop reporter; higher = weaker reporter binding
- condition.info: Eterna round: R107; input ligand: theophylline 20 uM
assay.endpoint: apparent KD of K4 kissing-loop reporter (nM)
Express your answer in nM, writing the number without its unit.

Solved entries:
{"columns": ["biopolymer.sequence", "apparent KD of K4 kissing-loop reporter [nM]"],
 "data": [
  ["UUUUACGAGUGAUGUUCGUAUUGUAAUAGUUAGGAUAUCGUUUUUUCGAGAAGGAACUUCGAAGUGAUACGAAAGUAUCGCUUCG [FMN A 10]", 143],
  ["AAGCAGUCUCUUGUAGUCAUCGAAGAUGAACGAGGACCGGUACGGCCGCCACUCGGAGUGAUGUUCCGAAGACUGCAAAAUAAAA [MatMod 17 - Jieux - Exclusion - Tryptophan A]", 765],
  ["UCCUAGGCUCGAAAGAGCCUAGGAUUAUCUCAGGAUAUCCGGAAACGGAGAAGGGAGAAACUAGUGAUGUUAGGGAUUCCCUAUU", 259],
  ["AGGUAGUCCCUUGUUGUCAUCGAAGAUGAACGAGGACCGGUACGGCCGCCACUCGGAGUGAUGUUCCGAUGGCUGCAAAAUAAAA [MatMod 23 - Jieux - Exclusion - Tryptophan A]", 85.9],
  ["GAGAUAGCGACGGCCGCCACUAGUGAUGUUAGUGCGGGUAGAUAGAUACUUGAACAGAAAUGACGUAGGACCGGGUCAGAUAGAG [#02 K4 Tryptophan B Exclusion]", 140],
  ["AGGGUUUAGGACGAUACCAGCCUGGAGGCCAGUGAUGUUGGCCGAUUUGAACAGAAUUAAGGCCCUUGGCAGCGUAUCUAAAACC [Esamaza]", 161],
  ["UGUCAUUGGUCGGCCGCCACUAGGACCGGGAUUUUUCUAGUGAUGUUAGUUUGGUCGGCCGCCACUAGGACCGGGACCGAUGACU [KL-SSTryp-B13 #DoubleAptamer]", 453],
  ["AGAGUUUUAUGAGGAUAUGAGAUAGUUAAUGAGUGAGUUAUAGUGUAGUUUGGUUAGUGAUGUUAUUUAGAAGGCGUGAGUGAUG [zzfzmullin]", 101]
]}

// recorded apparent KD of K4 kissing-loop reporter for CACGAUGAAUUCUCUAGGAGUGAUGUUUUUCGAGGACCGGUACGGCCGCCACUCGGACGACGAGCGUGGUAGCGGCGUGAAGACU [zamullin] : 459

// recorded apparent KD of K4 kissing-loop reporter for CGGAUGUAGUGAUGUUAUAUAAGAUGUAGACGAGGACCGGUACGGCCGCCACUCGAAACGGCUACUAGCGCGUUGCGAGGUGUGC [ExTryptoA.CI] : 674
